Data origin: patent US20230139171A1

assay.system: human TLR8 (Homo sapiens)
Construct: host or cells: HEK-Blue cells
Sequence (Q9NR97 27-1041): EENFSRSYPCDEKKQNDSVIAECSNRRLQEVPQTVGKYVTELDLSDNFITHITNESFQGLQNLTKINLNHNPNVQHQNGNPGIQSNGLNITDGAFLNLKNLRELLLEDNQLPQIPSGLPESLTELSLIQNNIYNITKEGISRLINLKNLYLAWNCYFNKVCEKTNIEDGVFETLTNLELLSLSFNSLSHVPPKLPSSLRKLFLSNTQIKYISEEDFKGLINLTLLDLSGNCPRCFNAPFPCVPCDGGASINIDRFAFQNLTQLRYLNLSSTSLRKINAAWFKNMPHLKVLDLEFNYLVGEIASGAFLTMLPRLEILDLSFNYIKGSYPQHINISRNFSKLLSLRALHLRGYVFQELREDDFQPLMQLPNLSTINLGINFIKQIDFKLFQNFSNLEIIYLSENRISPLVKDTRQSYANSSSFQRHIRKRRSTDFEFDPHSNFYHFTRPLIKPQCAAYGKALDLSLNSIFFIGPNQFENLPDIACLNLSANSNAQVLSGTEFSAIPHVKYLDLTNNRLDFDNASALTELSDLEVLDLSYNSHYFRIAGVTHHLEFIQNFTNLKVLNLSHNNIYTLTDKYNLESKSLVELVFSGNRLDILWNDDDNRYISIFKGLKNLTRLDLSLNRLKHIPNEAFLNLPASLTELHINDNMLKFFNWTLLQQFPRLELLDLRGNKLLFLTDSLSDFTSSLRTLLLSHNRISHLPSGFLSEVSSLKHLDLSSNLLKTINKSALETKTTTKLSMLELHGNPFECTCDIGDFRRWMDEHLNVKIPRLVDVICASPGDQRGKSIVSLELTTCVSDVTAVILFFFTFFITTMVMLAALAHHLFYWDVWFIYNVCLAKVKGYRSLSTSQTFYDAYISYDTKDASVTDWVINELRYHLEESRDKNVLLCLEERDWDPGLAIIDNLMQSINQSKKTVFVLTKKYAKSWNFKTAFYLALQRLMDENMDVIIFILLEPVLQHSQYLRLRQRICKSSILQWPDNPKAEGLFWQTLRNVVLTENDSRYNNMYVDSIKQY
measurement.description: TLR8 inhibition reporter assay (HEK-Blue cells, SEAP reporter, R848 stimulation)
Assay type: cell-based
test.parameters: HEK-Blue cells overexpressing human TLR8, SEAP reporter, R848 15.9 μM; read-out: TLR8 IC50
readout.type: IC50 (nM)
Lab book: enter the figure in nM, no units written.

INSERT INTO measurements (molecule, readout_type, experimental_result) VALUES
  ('CNC(=O)CN1CCC(c2nc3c(C(C)C)c(-c4cn(C)c(=O)c(C)c4C)[nH]c3s2)CC1 [Example 63]', 'IC50', 14.6),
  ('Cc1cc(-c2[nH]c3sc(C4CCN(CC(=O)N(C)C)CC4)nc3c2C(C)C)cn2ncnc12 [Example 17]', 'IC50', 8.27),
  ('COc1cc(-c2[nH]c3sc(C4CCC(N5CCNC(=O)C5)CC4)nc3c2C)cn2ncnc12 (single isomer, unassigned) [Example 275]', 'IC50', 515);

**Q:** Which IC50 value is on record for COc1cc(-c2[nH]c3sc(C4CCN(C5COC5)CC4)nc3c2C(C)C)cn2ncnc12 [Example 11] ?
**A:** 9.31

====

# maps each entry to its pIC50
assay.system: human TLR7 (Homo sapiens)
Construct: host or cells: HEK-Blue cells
Sequence (Q9NYK1 27-1049): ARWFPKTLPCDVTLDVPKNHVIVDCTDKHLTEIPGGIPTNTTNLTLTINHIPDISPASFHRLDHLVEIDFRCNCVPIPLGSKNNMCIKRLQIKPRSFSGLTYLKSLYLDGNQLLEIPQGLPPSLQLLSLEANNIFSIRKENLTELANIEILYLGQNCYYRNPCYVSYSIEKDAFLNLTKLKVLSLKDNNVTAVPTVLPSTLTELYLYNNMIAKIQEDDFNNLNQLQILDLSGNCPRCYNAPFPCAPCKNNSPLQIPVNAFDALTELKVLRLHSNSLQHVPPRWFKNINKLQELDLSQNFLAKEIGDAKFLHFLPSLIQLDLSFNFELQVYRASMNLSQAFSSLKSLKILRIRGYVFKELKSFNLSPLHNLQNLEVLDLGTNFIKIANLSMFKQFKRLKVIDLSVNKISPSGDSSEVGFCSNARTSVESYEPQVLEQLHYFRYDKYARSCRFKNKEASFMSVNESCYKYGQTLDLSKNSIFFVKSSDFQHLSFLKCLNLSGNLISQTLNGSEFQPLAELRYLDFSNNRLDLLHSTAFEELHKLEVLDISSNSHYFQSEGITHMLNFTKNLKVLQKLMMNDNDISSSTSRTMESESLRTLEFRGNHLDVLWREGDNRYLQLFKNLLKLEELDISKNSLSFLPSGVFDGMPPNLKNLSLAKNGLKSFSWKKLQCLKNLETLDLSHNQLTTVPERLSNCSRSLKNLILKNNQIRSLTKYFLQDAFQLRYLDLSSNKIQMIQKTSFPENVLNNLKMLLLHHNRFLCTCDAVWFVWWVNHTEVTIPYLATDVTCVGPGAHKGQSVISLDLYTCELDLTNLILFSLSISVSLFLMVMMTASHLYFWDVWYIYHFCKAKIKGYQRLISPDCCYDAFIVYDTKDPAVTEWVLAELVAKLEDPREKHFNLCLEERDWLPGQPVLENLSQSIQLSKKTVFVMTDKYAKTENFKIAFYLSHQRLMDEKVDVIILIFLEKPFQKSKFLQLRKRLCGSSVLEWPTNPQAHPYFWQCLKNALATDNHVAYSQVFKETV
measurement.description: TLR7 inhibition reporter assay (HEK-Blue cells, SEAP reporter, gardiquimod stimulation)
Type: cell-based
test.parameters: HEK-Blue cells overexpressing human TLR7, SEAP reporter, gardiquimod 7.5 μM; read-out: TLR7 IC50
pIC50 (log units): -log10 of the concentration in mol/L.

These solved cases illustrate the format of a correct answer.
INSERT INTO results (compound, readout_type, experimental_result) VALUES
  ('COc1cc(-c2[nH]c3sc(C4CCC(N5[C@@H]6CC[C@H]5COC6)CC4)nc3c2C(C)C)cn2ncnc12 (single isomer, unassigned) [Example 105]', 'pIC50', 8.86),
  ('Cc1c(-c2[nH]c3sc(N4CCN(C5CCOCC5)C[C@@H]4C)nc3c2C(C)C)cn2ncnc2c1C', 'pIC50', 8.09),
  ('Cc1cc2ncnn2cc1-c1[nH]c2sc(C3CCC(N4CCCC4)CC3)nc2c1C(C)C (single isomer, unassigned) [Example 154]', 'pIC50', 7.92),
  ('Cc1c(-c2[nH]c3sc(C4CCC(N5CC6(COC6)C5)CC4)nc3c2C(C)C)cn(C)c(=O)c1C (single isomer, unassigned) [Example 246]', 'pIC50', 7.22),
  ('Cc1c(-c2[nH]c3sc(N4CC5(CN(CC(C)C)C5)C4)nc3c2C(C)C)cn2ncnc2c1C', 'pIC50', 7.97),
  ('Cc1c(-c2[nH]c3sc(C4CCC(N5CCNC(=O)C5)CC4)nc3c2C(C)C)cn(C)c(=O)c1C (single isomer, unassigned) [Example 260]', 'pIC50', 6.77),
  ('Cc1c(-c2[nH]c3sc(N4CCN(CC(C)(C)O)CC4)nc3c2C(C)C)cn2ncnc2c1C', 'pIC50', 8.02),
  ('Cc1c(-c2[nH]c3sc(C4CCC(NCC5(S(C)(=O)=O)CC5)CC4)nc3c2C(C)C)cn(C)c(=O)c1C (single isomer, unassigned) [Example 258]', 'pIC50', 7.44),
  ('Cc1cc2ncnn2cc1-c1[nH]c2sc(C3CCC(NC4COC4)CC3)nc2c1C(C)C (single isomer, unassigned) [Example 153]', 'pIC50', 7.56),
  ('COc1cc(-c2[nH]c3sc(C4CCN(C(=O)CN(C)C)CC4)nc3c2C(C)C)cn2ncnc12', 'pIC50', 8.69);

**Q:** Which pIC50 value is on record for "Cc1cc(-c2[nH]c3sc(C4CCN(C(=O)CN(C)C)CC4)nc3c2C(C)C)cc(C)n1" ?
**A:** 7.41

**Q:** Also need COc1cc(-c2[nH]c3sc(C4CCC(N(C)CC(=O)N(C)C)CC4)nc3c2C(C)C)cn2ncnc12 (single isomer, unassigned) [Example 163] , thanks.
**A:** 8.80

**Q:** Also need COc1cc(-c2[nH]c3sc(C4CCC(NCC(C)(C)O)CC4)nc3c2C(C)C)cn2ncnc12 (single isomer, unassigned) [Example 84] , thanks.
**A:** 9.05
